Measured composite z-score of individual entries
# Protocol details: binders of probe aFGF2 on microarray, primary screen, stem cell growth factor project, biochemical, small-molecule microarray, fluorescence 635/667 (AID 1067);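 also: measures binding of biotinylated aFGF2 protein to printed compounds on slides; z-score merges feature fluorescence and signal-to-noise across triplicate slides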
# Test parameters: higher = more signal

{"columns": ["Molecule", "composite z-score"],
 "data": [
  ["O=C1N(Cc2ccccc2)c2ccccc2[C@@H]2OC(c3ccc(OCCCO)cc3)=N[C@]12CCS(=O)(=O)c1ccccc1", 0.0111],
  ["CCCc1cc2c(n1Cc1cc(F)cc(F)c1)C(C)C1CN(C(=O)c3ccccc3)C(C)(C(=O)OC)C21 (stereo not drawn)", 0.256],
  ["O=C(CS)NCCCCCCNC(=O)[C@@H]1C[C@@H]2C(=O)N[C@@H](Cc3ccccc3)C(=O)N2[C@@H]1c1cccc(OCCO)c1", 0.0589],
  ["COc1cc2c(cc1OC)CN(C(=O)[C@@H]1[C@H]3C(=O)O[C@H](c4ccccc4)[C@H](c4ccccc4)N3[C@H](c3ccccc3OCCO)[C@@]13C(=O)Nc1ccc(C#CCCO)cc13)CC2", -0.152],
  ["O=C1O[C@H](c2ccccc2)[C@H](c2ccccc2)N2[C@H]1[C@@H](C(=O)N1CCCCCCC1)[C@]1(C(=O)Nc3ccc(C#CC4=CCCCC4)cc31)[C@H]2c1ccc(OCCO)cc1", 0.917],
  ["O=C1C2C=CC(C(O)c3cc(C(F)(F)F)cc(C(F)(F)F)c3)N(n3cnnc3)C2C(=O)N1Cc1ccccc1 (stereo not drawn)", -0.0628],
  ["NCCCCCCNC(=O)[C@@H]1C[C@@H]2C(=O)NCC(=O)N2[C@@H]1c1ccc(O)cc1", -0.14],
  ["C=CCC(OC(C)=O)[C@@H]1[C@@H](N(Cc2cc3ccccc3o2)C(=O)c2cccc3ccccc23)c2cc(OCCCO)ccc2N1C(=O)c1ccc(-c2ccccc2)cc1 (stereo partly drawn)", -0.108],
  ["COCCOC(=O)N1C(=O)[C@@]2(c3cc(C#CCCO)ccc31)[C@H](C(N)=O)[C@H]1C(=O)O[C@H](c3ccccc3)[C@H](c3ccccc3)N1[C@@H]2c1ccc(O)cc1", -0.0145],
  ["CCOC(=O)C[C@H]1[C@H](OC(=O)c2ccc(C(=O)c3ccccc3)cc2)[C@@H](NC(=O)CC(C)C)c2cc(OCCCO)ccc2N1C(=O)c1ccc2ccccc2n1", -0.0715],
  ["C=CCC(OC(C)=O)[C@@H]1[C@@H](N(Cc2ccc(-c3ccccc3)cc2)C(=O)c2ccc(-c3ccccc3)cc2)c2cc(OCCCO)ccc2N1C(=O)Cc1ccc2ccccc2c1 (stereo partly drawn)", -0.117],
  ["C=CCN1C(=O)[C@]2(O[C@H](CCn3cc([C@H](O)c4ccccc4)nn3)[C@@H]([Si](C)(C)c3ccc(OC)cc3)[C@@H]2C)c2cc(N3CCC3=O)ccc21", 0.0087],
  ["COc1cc2c(cc1O)C(C1CC1)N(Cc1sc3ccccc3c1Cl)CC2 (stereo not drawn)", -0.135]
]}

----------
# Target under test: Neurogenic locus notch homolog protein 2 (Homo sapiens)
# Protocol details: Notch2 binders on small-molecule microarrays, primary screen, biochemical, small-molecule microarray, 635 nm fluorescence, stem cell growth factors (AID 1073)
# Test parameters: Notch2 binding, higher = more signal
Measured composite z-score of individual entries
Assay readout: composite z-score

{"columns": ["Compound", "Assay readout", "Readout value"],
 "data": [
  ["O=C1C2C=CC(C(O)CCc3ccccc3)N(Nc3ccccc3F)C2C(=O)N1c1ccccc1 (stereo unspecified)", "composite z-score", 1.68],
  ["Cc1ccc([C@@H]2C[C@@H](Sc3ccccc3)[C@H](C(=O)O)CN2S(=O)(=O)c2ccc(C)cc2)cc1", "composite z-score", 1.59],
  ["CC(C)c1ccc(NN2C(C(O)c3ccc(B(O)O)cc3)C=CC3C(=O)N(c4ccccc4)C(=O)C32)cc1 (stereo unspecified)", "composite z-score", 1.63],
  ["CC(C)N1C(=O)[C@@]2(Cc3ccccc31)c1ccccc1C(=O)N(Cc1ccccc1Cl)[C@H]2c1ccc(CO)cc1", "composite z-score", -0.791],
  ["C[C@H]1NC(=O)[C@@]23C(=O)N[C@@H](Cc4ccccc4)C2[C@H](C)[C@@]2(C)O[C@H]2C3/C=C/C/C=C\\CNC(=O)[C@@H]2CCCN2C1=O (stereo partly specified)", "composite z-score", 0.521],
  ["COC(=O)[C@@]1(Cc2ccc(OC)cc2)[C@H]2c3cc(C(=O)N(C)C)n(C)c3C[C@H]2CN1C(=O)c1ccccc1", "composite z-score", 1.66],
  ["CCCC[C@@H]1C[C@H]1[C@@H](NC(=O)C(C)(C)C)c1ccc(C(F)(F)F)cc1", "composite z-score", -1.36],
  ["CCc1cccc(NC(=O)O[C@H]2[C@H](OC(=O)Nc3ccccc3-c3ccccc3)[C@@H](OC(=O)Nc3ccccc3-c3ccccc3)[C@@H](OC)O[C@@H]2CO)c1", "composite z-score", 1.6],
  ["Cc1ccc(N2C(=O)c3ccccc3[C@@H](C(=O)NC3CC3)[C@@H]2c2ccc(CO)cc2)nc1", "composite z-score", -1.63],
  ["C=CCNC(=O)[C@@H]1[C@H]2C(=O)O[C@H](c3ccccc3)[C@H](c3ccccc3)N2[C@H](c2ccc(O)cc2)[C@@]12C(=O)Nc1ccc(C#CCNC(N)=O)cc12", "composite z-score", -0.383],
  ["COC(=O)[C@]1(CCC(=O)OC(C)(C)C)N=C(c2ccc(OCCCO)cc2)O[C@@H]1c1ccccc1CN=[N+]=[N-]", "composite z-score", 0.53]
]}
